Dear all, I have gathered published pIC50 values for Cannabinoid receptor 1 (Rattus norvegicus, UniProt P20272); the list follows.
Schema: pIC50 number; meaning minus log10 of the concentration expressed in molar units.

>>> observed_measurement("O=C(NN1CCCCCC1)c1nn(-c2ccc(Cl)cc2Cl)c(-c2ccc(Br)cc2)c1Cn1cncn1")
8.08
>>> observed_measurement("CN1CCN(C(=O)c2nn(-c3ccc(Cl)cc3Cl)c(-c3ccc(Cl)cc3)c2Cn2cncn2)CC1")
5.85
>>> observed_measurement("Cc1nc(C(C)(C)NC(=O)c2nn(-c3ccc(Cl)cc3Cl)c(-c3ccc(Cl)cc3)c2C)no1")
7.48

We now examine a further molecule.
-- ask Any idea what pIC50 came out for "FC(F)(F)C1(c2nnc(-c3nn(-c4ccccc4Cl)c(-c4ccc(Br)cc4)c3Cn3cncn3)s2)CCC1" on Cannabinoid receptor 1 (Rattus norvegicus, UniProt P20272)?
-- reply 9.07

* * *

Dear all, I have gathered published IC50 values for UniProt:P20272; the list follows.
// note: answer is a bare numeric in nM

>>> observed_measurement("O=C(c1nn(-c2ccccc2Cl)c(-c2ccc(Br)cc2)c1Cn1cncn1)N1CCN(c2ncccn2)CC1")
22.3

-- ask Any idea what IC50 came out for CCCCCC(=O)N1CCN(C(c2ccc(Cl)cc2)c2ccc(Cl)cc2Cl)CC1 (stereo not given) on UniProt:P20272?
-- reply 257

-- ask Any idea what IC50 came out for "CC(C)(NC(=O)c1nn(-c2ccc(Cl)cc2Cl)c(-c2ccc(Br)cc2)c1Cn1cncn1)c1ccc(Cl)cc1" on UniProt:P20272?
-- reply 2.99

-- ask Any idea what IC50 came out for "Cc1c(C(=O)NC(C)(C)c2cn3cc(C(F)(F)F)ccc3n2)nn(-c2ccc(Cl)cc2Cl)c1-c1ccc(Cl)cc1" on UniProt:P20272?
-- reply 63

* * *

Dear all, I have gathered published pIC50 values for UniProtKB P20272; the list follows.
Schema: pIC50 number; meaning minus log10 of the concentration expressed in molar units.

Some compounds with recorded pIC50:
>>> observed_measurement("C[C@H](Nc1cc(OCC2CCCCC2)ncn1)[C@@H](Cc1ccc(Cl)cc1)c1cccc(Br)c1")
6.87
>>> observed_measurement("CC(C)c1c(-c2nnc(C(C)(C)C)o2)nn(-c2ccc(Cl)cc2Cl)c1-c1ccc(Cl)cc1")
7.74
>>> observed_measurement("C[C@H](Nc1cc(NCc2ccccn2)ncn1)[C@@H](Cc1ccc(Cl)cc1)c1cccc(Br)c1")
6.58
>>> observed_measurement("O=C(NCC1CCCCC1)N1CCN(C(c2ccc(Cl)cc2)c2cccc(Cl)c2Cl)CC1 (centres undefined)")
5.70
>>> observed_measurement("Cc1cccc(N2CCN(C(=O)c3nn(-c4ccc(Cl)cc4Cl)c(-c4ccc(Br)cc4)c3Cn3cncn3)CC2)c1C")
8.42

-- ask Any idea what pIC50 came out for "CCC(C)(C)NC(=O)c1nn(-c2ccccc2Cl)c(-c2ccc(Br)cc2)c1Cn1cncn1" on UniProtKB P20272?
-- reply 8.05

-- ask Any idea what pIC50 came out for "CCCCNC(=O)c1c(-c2nnc(C(C)(C)C)o2)nn(-c2ccc(Cl)cc2Cl)c1-c1ccc(Cl)cc1" on UniProtKB P20272?
-- reply 7.75

* * *

Dear all, I have gathered published pIC50 values for Cannabinoid receptor 1 (Rattus norvegicus); the list follows.
Schema: pIC50 number; meaning minus log10 of the concentration expressed in molar units.

Some molecules with recorded pIC50:
>>> observed_measurement("CC(C)(C)c1nnc(-c2nn(-c3ccc(Cl)cc3Cl)c(-c3ccc(Cl)cc3)c2Cn2ncnn2)o1")
8.47
>>> observed_measurement("Cc1c(-c2nnc(Cc3ccccc3)o2)nn(-c2ccc(Cl)cc2Cl)c1-c1ccc(Cl)cc1")
7.72
>>> observed_measurement("CC(NC(=O)c1nn(-c2ccccc2Cl)c(-c2ccc(Br)cc2)c1Cn1cncn1)C(C)(C)C (stereo not drawn)")
8.22
>>> observed_measurement("O=C(NC1CCCCC1)N1CCN(C(c2ccc(Cl)cc2)c2ccc(Cl)cc2Cl)CC1 (stereo not drawn)")
6.98

-- ask What does the data say about its pIC50? Entry: "O=C(c1nn(-c2ccccc2Cl)c(-c2ccc(Cl)cc2)c1Cn1cncn1)N1CCN(c2ccccc2)CC1"
-- reply 7.94

-- ask What does the data say about its pIC50? Entry: "C[C@H](Nc1cc(NCC2CCCCC2)ncn1)[C@@H](Cc1ccc(Cl)cc1)c1cccc(Br)c1"
-- reply 7.15

-- ask What does the data say about its pIC50? Entry: CC(NC(=O)c1nn(-c2ccccc2Cl)c(-c2ccc(Br)cc2)c1Cn1cncn1)c1ccc(Cl)cc1Cl (stereo not drawn)
-- reply 8.66

-- ask What does the data say about its pIC50? Entry: "CCN(CC)C(=O)c1c(-c2nnc(C(C)(C)C)o2)nn(-c2ccc(Cl)cc2Cl)c1-c1ccc(Cl)cc1"
-- reply 7.21

-- ask What does the data say about its pIC50? Entry: "Cc1c(-c2nnnn2C)nn(-c2ccc(Cl)cc2Cl)c1-c1ccc(Cl)cc1"
-- reply 5.97

* * *

pIC50: −log10 of the molar value.
Dear all, I have gathered published pIC50 values for Cannabinoid receptor 1 (Rattus norvegicus, UniProt P20272); the list follows.
Entry flag: condition met if pIC50 reaches 8; condition not met if it does not.

See these solved cases before continuing.
>>> label_value("O=C(NCC1CCCCC1)c1nn(-c2ccc(Cl)cc2Cl)c(-c2ccc(Cl)cc2)c1Cn1cncn1")
"condition not met"
>>> label_value("CCCCCCN(CCCCCC)C(=O)Cc1c(-c2ccccc2)[nH]c2ccc(Cl)cc12")
"condition not met"
>>> label_value("Cc1c(-c2nnnn2C(C)(C)C)nn(-c2ccc(Cl)cc2Cl)c1-c1ccc(Cl)cc1")
"condition not met"
>>> label_value("O=C(NC1(C(F)(F)F)CCC1)c1nn(-c2ccccc2Cl)c(-c2ccc(Cl)cc2)c1Cn1cncn1")
"condition met"
>>> label_value("Clc1ccc(C[C@H](CNc2cc(N3CCCCC3)ncn2)c2cccc(Br)c2)cc1")
"condition not met"
>>> label_value("CC(C)CNc1cc(N[C@@H](C)[C@@H](Cc2ccc(Cl)cc2)c2cccc(Br)c2)ncn1")
"condition not met"
>>> label_value("CNC(=O)c1c(-c2nnc(C(C)(C)C)o2)nn(-c2ccc(Cl)cc2Cl)c1-c1ccc(Cl)cc1")
"condition not met"
>>> label_value("O=C(Cc1c(-c2ccccc2)[nH]c2ccccc12)N1CCCCC1")
"condition not met"

-- ask Please indicate if the recorded pIC50 for "Cc1c(-c2nnc(CC(C)C)o2)nc(-c2ccc(Cl)cc2Cl)n1-c1ccc(Cl)cc1" meets or exceeds 8.
-- reply condition not met

-- ask Please indicate if the recorded pIC50 for CC(C)(C)NC(=O)N1CCN(C(c2ccc(Br)cc2)c2ccccc2Cl)CC1 (stereo not given) meets or exceeds 8.
-- reply condition not met

-- ask Please indicate if the recorded pIC50 for "Cc1nnc(-c2c(-c3nnc(C4(c5ccc(Cl)cc5)CC4)o3)nn(-c3ccc(Cl)cc3Cl)c2-c2ccc(Cl)cc2)o1" meets or exceeds 8.
-- reply condition met

-- ask Please indicate if the recorded pIC50 for "CCCCCCOc1cc(N[C@@H](C)[C@@H](Cc2ccc(Cl)cc2)c2cccc(Br)c2)ncn1" meets or exceeds 8.
-- reply condition not met

-- ask Please indicate if the recorded pIC50 for CC(C)(C)NC(=O)N1CCN(C(c2ccc(Cl)cc2)c2ccc(Cl)cc2Cl)CC1 (stereo not given) meets or exceeds 8.
-- reply condition not met

-- ask Please indicate if the recorded pIC50 for "C[C@H](Nc1cc(N2CCCC2)ncn1)[C@@H](Cc1ccc(Cl)cc1)c1cccc(Br)c1" meets or exceeds 8.
-- reply condition not met

-- ask Please indicate if the recorded pIC50 for "C[C@H](Nc1cc(N2CCCCCC2)ncn1)[C@@H](Cc1ccc(Cl)cc1)c1cccc(Br)c1" meets or exceeds 8.
-- reply condition not met

-- ask Please indicate if the recorded pIC50 for O=C(NC1CCCCCC1)N1CCN(C(c2ccc(Cl)cc2)c2ccccc2C(F)(F)F)CC1 (stereo not given) meets or exceeds 8.
-- reply condition not met

-- ask Please indicate if the recorded pIC50 for "C[C@H](Nc1cc(C2CCCC2)ncn1)[C@@H](Cc1ccc(Cl)cc1)c1cccc(Br)c1" meets or exceeds 8.
-- reply condition not met

* * *

Dear all, I have gathered published pIC50 values for Cannabinoid receptor 1 (Rattus norvegicus); the list follows.
Schema: pIC50 number; meaning minus log10 of the concentration expressed in molar units.

Some compounds with recorded pIC50:
>>> observed_measurement("C[C@H](Nc1cc(NCC2CCCO2)ncn1)[C@@H](Cc1ccc(Cl)cc1)c1cccc(Br)c1 (stereo partly drawn)")
6.94
>>> observed_measurement("O=C(NC1CCCCC1)c1nn(-c2ccccc2Cl)c(-c2ccc(Br)cc2)c1Cn1cncn1")
8.80

-- ask What does the data say about its pIC50? Entry: "Cc1c(-c2nnc(Cc3ccccn3)o2)nn(-c2ccc(Cl)cc2Cl)c1-c1ccc(Cl)cc1"
-- reply 7.28

-- ask What does the data say about its pIC50? Entry: CC(NC(=O)c1nn(-c2ccc(Cl)cc2Cl)c(-c2ccc(Cl)cc2)c1Cn1cncn1)c1ccc(Cl)cc1Cl (stereo not drawn)
-- reply 8.59

-- ask What does the data say about its pIC50? Entry: "CCc1c(C(=O)NC(C)(C)c2nnnn2C)nn(-c2ccc(Cl)cc2Cl)c1-c1ccc(OC)cc1"
-- reply 8.30

-- ask What does the data say about its pIC50? Entry: "O=C(NC1CCCCCC1)c1nn(-c2ccc(Cl)cc2Cl)c(-c2ccc(Cl)cc2)c1Cn1cncn1"
-- reply 7.95
